Biological target: UniProt P11309
Sequence (P11309 whole entry, species assumed): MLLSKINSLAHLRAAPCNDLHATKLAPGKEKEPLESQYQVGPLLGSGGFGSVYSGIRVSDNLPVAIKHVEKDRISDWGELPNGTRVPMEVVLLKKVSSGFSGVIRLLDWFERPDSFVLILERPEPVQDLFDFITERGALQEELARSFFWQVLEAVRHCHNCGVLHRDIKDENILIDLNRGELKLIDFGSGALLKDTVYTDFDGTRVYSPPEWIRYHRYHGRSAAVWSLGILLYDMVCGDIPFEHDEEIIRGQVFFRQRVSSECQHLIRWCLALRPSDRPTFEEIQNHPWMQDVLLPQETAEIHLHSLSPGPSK
Structures can show the parent of a compound that is named as a salt.
Sorting guide: entries reporting IC50 beneath 0.4 nM go in the MET pile, the rest go in the NOT MET pile.

Lab note: confirm whether the reported IC50 for this compound is below 0.4 nM, equality not counting. compound: Cc1c(-c2cc3nc(-c4nnc5ccc([C@@H](N6CC[C@H](N)C6)C(F)(F)F)cn45)ccc3cc2F)cnn1C [Example 206, dihydrochloride] MET

Lab note: confirm whether the reported IC50 for this compound is below 0.4 nM, equality not counting. compound: COc1cccc2ccc(-c3nnc4ccc(C(N5CC[C@H](N)C5)C(F)(F)F)cn34)nc12 (stereo partly drawn) [Example 1, dihydrochloride] NOT MET

Lab note: confirm whether the reported IC50 for this compound is below 0.4 nM, equality not counting. compound: C[C@H](CO)Oc1cc(F)cc2ccc(-c3nnc4ccc([C@@H](N5CC[C@H](N)C5)C(F)(F)F)cn34)nc12 [Example 238, dihydrochloride] MET

Lab note: confirm whether the reported IC50 for this compound is below 0.4 nM, equality not counting. compound: N[C@H]1CCN([C@H](c2ccc3nnc(-c4ccc5ccc(C6CC6)c(F)c5n4)n3c2)C(F)(F)F)C1 [Example 172, dihydrochloride] NOT MET

Value source: patent US8889704B2
